Provenance of the data: ChEMBL document CHEMBL4028820

The reader will find reported IC50 values listed item by item below.
tested on: HCT-116; assay: Antiproliferative activity against human HCT116 cells after 48 hrs by MTT assay; type: functional, cell-based; conditions: HCT-116, 48 h

| Molecule | IC50 |
| --- | --- |
| O=c1[nH]cc(F)c(=O)[nH]1 [FLUOROURACIL] | 26.2 µM |
| CCCCOC(=O)c1ccccc1C(=O)OCC(C)C | 36.1 µM |
| CC(C)CC[C@H](O)[C@@H]1C(=O)OC[C@H]1CO | 62.3 µM |

Next, consider the following molecule.
Input line: Need IC50, item CC1=C2C(O)C(C(C)CO)CCC2(C)C=CC1=O (centres undefined)
Output line: 19.2 µM

---

tested on: Staphylococcus epidermidis; assay: Antibacterial activity against Staphylococcus epidermidis ATCC 12228 after 20 to 24 hrs by broth microdilution method; type: functional
Recorded endpoint: MIC

Recorded MIC, per entry:
| Molecule | MIC |
| --- | --- |
| CCCCOC(=O)c1ccccc1C(=O)OCC(C)C | > 128 µg/mL |
| CC1=C2C(O)C(C(C)CO)CCC2(C)C=CC1=O (stereo not drawn) | > 128 µg/mL |

Continue with the next molecule.
Input line: Can you look up MIC on Staphylococcus epidermidis for C[C@H]1COc2c(N3CCN(C)CC3)c(F)cc3c(=O)c(C(=O)O)cn1c23.C[C@H]1COc2c(N3CCN(C)CC3)c(F)cc3c(=O)c(C(=O)O)cn1c23.O ?
Output line: 0.039 to 0.078 µg/mL
